target: CaNbp2; experiment: SPOT peptide array binding signal intensity (averaged, normalized) (arbitrary units (background-subtracted, floor 0; scale differs between SH3 domains)); higher = stronger binding of the SH3 domain to the peptide
Kindly supply the reported SPOT peptide array binding signal intensity values for the records listed here.
Lab note: jot down the number only; don't add units.

stdin: Supply reported SPOT peptide array binding signal intensity belonging to this binder: "RTRRRPPPPPIPSTQ"
stdout: 1440

stdin: Supply reported SPOT peptide array binding signal intensity belonging to this binder: "TTNRGPPPLPPRANV"
stdout: 35

stdin: Supply reported SPOT peptide array binding signal intensity belonging to this binder: "NFKRLLPRDPSEKSS"
stdout: 286

stdin: Supply reported SPOT peptide array binding signal intensity belonging to this binder: "FYHRPAPKPPVTKKV"
stdout: 843

stdin: Supply reported SPOT peptide array binding signal intensity belonging to this binder: "RKNRAPPQRPRFNRD"
stdout: 1750

stdin: Supply reported SPOT peptide array binding signal intensity belonging to this binder: "RRSKSLPITPKSIFN"
stdout: 128

stdin: Supply reported SPOT peptide array binding signal intensity belonging to this binder: "TSFKGRPKPPKTLKH"
stdout: 12

stdin: Supply reported SPOT peptide array binding signal intensity belonging to this binder: "QPWTDQFEKLEKEVS"
stdout: 23

stdin: Supply reported SPOT peptide array binding signal intensity belonging to this binder: "YHSRRHPLALGFKYV"
stdout: 204

stdin: Supply reported SPOT peptide array binding signal intensity belonging to this binder: "QRIRKIPGIPLMSVG"
stdout: 549

stdin: Supply reported SPOT peptide array binding signal intensity belonging to this binder: "LKVTPGRRAPTISKI"
stdout: 2720

stdin: Supply reported SPOT peptide array binding signal intensity belonging to this binder: "HRRRRVFSIPSLKSI"
stdout: 887

stdin: Supply reported SPOT peptide array binding signal intensity belonging to this binder: "PSRRDSLSIPRAVDA"
stdout: 28.5
